test system: CEM cells HIV-1 protection, formazan growth assay; assay: NCI AIDS Antiviral Assay; conditions: measured here: growth of uninfected CEM cells
Hi there, I'd appreciate the recorded pIC50 for every entry that follows.
Entry type: numeric. Quantity: pIC50, the -log10 of concentration in molar units.

Enquiry: Fill blank: measured pIC50 of the compound CCNC(=O)c1cc(NC(=O)c2ccc(C(=O)Nc3cc(C(=O)NCC)cc(C4=NCCN4)c3)cc2)cc(C2=NCCN2)c1 is ____.
Return: 4.06

Enquiry: And the next one, O=C(Nc1ccc(C2=NCCN2)cc1)c1cccc(C(=O)Nc2ccc(C3=NCCN3)cc2)c1Cl ?
Return: 3.81

Enquiry: Similarly, CC(C)(C[NH-])C[NH-].[Cl][Pt+2][Cl] ?
Return: 5.69

Enquiry: And the next one, COC(=O)C1=C2c3ccccc3NC(=O)N2NC1C(=O)OC (stereo not given) ?
Return: 3.30

Enquiry: Same question for c1ccc(-c2c3ccccc3[o+]c3ccccc23)cc1 please.
Return: 4.48

Enquiry: Another compound to look at: CC(C)C1CNC2N1C(=O)C2(C)OCc1ccccc1 (stereo not given)
Return: 3.81

====

test system: CEM cells HIV-1 protection, formazan growth assay; test: NCI AIDS Antiviral Assay;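 active = compounds giving half or more protection of infected cells from virus-caused growth loss, again on retest; inactive = the rest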
Where a SMILES comes first, the peptide text is derived from it. The star is where a group is joined. Boc = CC(C)(C)OC(=O)*
Hi! Could you answer with just one of these? t = active, f = inactive

Enquiry: Query: recorded result category for COc1ccc(/C=C2\CCS(=O)(=O)c3ccccc3C2=O)cc1 in this test
Return: f

Enquiry: Next record, please: CCCCCCCCCCCCCCCCCCOC(COP(=O)(O)OCC1CCC(n2ccc(NC(=O)CCCCCCCCCCCCCCC)nc2=O)O1)COP(=O)(O)OCC1OC(n2cc(C)c(=O)[nH]c2=O)CC1N=[N+]=[N-] (centres undefined)
Return: t

Enquiry: Do the same for Cc1cn(C2CCC(COP(=O)(OCC(=O)c3ccccc3)OCC(=O)c3ccccc3)O2)c(=O)[nH]c1=O (centres undefined) please
Return: t

Enquiry: Try c1ccc2c(c1)C1CCCCCC21N1CCOCC1 (centres undefined) next.
Return: f

Enquiry: Proceed to CCOc1c(Cc2ccccc2)c(=O)nc2c(-c3ccccc3)cncn12
Return: f

Enquiry: Next up: Nc1nc(Cl)c(N)c(NCC2(CO)CC(OCc3ccccc3)C2)n1 (centres undefined)
Return: f

Enquiry: Also need O=C(CC(=O)n1nc(-c2ccccc2)c(N=Nc2ccc(Cl)cc2)c1-c1ccccc1)Nc1ccc(Cl)cc1 , thanks.
Return: f

Enquiry: Now consider Nc1ccn(C2OC(CO)C(O)C2O)c(=O)n1 (centres undefined) and answer again.
Return: f

Enquiry: Quick one: COC(=O)c1cc(C(=CCC(=O)N[C@@H]2CC[C@@]3(C)[C@@H](CC[C@@H]4[C@@H]3CC[C@]3(C)[C@@H]([C@H](C)CCCC(C)C)CC[C@@H]43)C2)c2cc(Cl)c(OC)c(C(=O)OC)c2)cc(Cl)c1OC
Return: f

Enquiry: Follow-up item: O=[N+]([O-])c1ccc2[nH]ncc2c1Cl
Return: f

Enquiry: What do we get for CCOC(=O)C1CC(C(=O)OCC)c2nc3ccccc3nc21 (centres undefined) ?
Return: f

Enquiry: Now consider CC(=O)NS(=O)(=O)c1ccc(-n2sc3ccccc3c2=O)cc1 .
Return: t

Enquiry: Try CC(NC(=O)C(NC(=O)OC(C)(C)C)C(C)C)C(=O)NCC(=O)O (stereo not drawn) (Boc-Val-Ala-Gly-OH; configuration not given here) next.
Return: f

Enquiry: Same again, this time with N#C/C(c1nc2ccccc2[nH]1)=c1\s/c(=C/c2ccc(Cl)cc2)c(=O)n1-c1ccccc1
Return: f

Enquiry: Quick one: CN(C)c1ccc(/C=C2\Cc3ccccc3C2=O)cc1
Return: f

Enquiry: What would you report for CCOP(=O)(OCC)/C(C#N)=C/c1ccccn1 ?
Return: t

Enquiry: Repeat for the following molecule: CCOP(=O)(OCC)C(NC(=O)C(C(F)(F)F)C(F)(F)F)c1ccccc1 (centres undefined)
Return: f

Enquiry: What about C[n+]1c(-c2ccc(/C=N\NC(=O)c3cncc(C(=O)N/N=C/c4ccc(-c5cn6ccccc6[n+]5C)cc4)c3)cc2)cn2ccccc21 ?
Return: f
